Value source: patent US4061748A

Lab note: MIC readings collected with Serratia No. 72 for the following compounds.
Write down the numeric answer in µg/mL and omit the unit.

compound: Cc1nnc(SCC2=C(C(=O)O)N3C(=O)C(NC(=O)[C@H](NC(=O)c4cnc5cccnc5c4O)c4ccccc4)C3SC2)s1 (stereo partly drawn) [Example 2]
target-or-test-system: Serratia No. 72
MIC [µg/mL]: 12.5

// next entry
Task: Specify reported MIC for the compound shown: O=C(O)C1=C(CSc2cnn[nH]2)CSC2C(NC(=O)[C@H](NC(=O)c3cnc4cccnc4c3O)c3ccccc3)C(=O)N12 (stereo partly drawn) [Example 4]
Result: 25

====

Lab note: MIC readings collected with Enterobacter aerogenes No. 75 for the following compounds.
Write down the numeric answer in µg/mL and omit the unit.

compound: Cn1nnnc1SCC1=C(C(=O)O)N2C(=O)C(NC(=O)[C@H](NC(=O)c3cnc4cccnc4c3O)c3ccccc3)C2SC1 (stereo partly drawn)
MIC [µg/mL]: 3.13

compound: CC(=O)OCC1=C(C(=O)O)N2C(=O)C(NC(=O)[C@H](NC(=O)c3cnc4ccccc4c3O)c3ccccc3)C2SC1 (stereo partly drawn) [Compound (A), reference compound]
MIC [µg/mL]: 25

compound: O=C(O)C1=C(CSc2cnn[nH]2)CSC2C(NC(=O)[C@H](NC(=O)c3cnc4cccnc4c3O)c3ccccc3)C(=O)N12 (stereo partly drawn)
MIC [µg/mL]: 3.13

compound: CC(=O)OCC1=C(C(=O)O)N2C(=O)C(NC(=O)[C@H](NC(=O)c3cnccc3O)c3ccccc3)C2SC1 (stereo partly drawn) [Compound (B), reference compound]
MIC [µg/mL]: 25

compound: CC(=O)OCC1=C(C(=O)O)N2C(=O)C(NC(=O)[C@H](NC(=O)c3cnc4cccnc4c3O)c3ccccc3)C2SC1 (stereo partly drawn)
MIC [µg/mL]: 6.25

// next entry
Task: Specify reported MIC for the compound shown: Cc1nnc(SCC2=C(C(=O)O)N3C(=O)C(NC(=O)[C@H](NC(=O)c4cnc5cccnc5c4O)c4ccccc4)C3SC2)s1 (stereo partly drawn)
Result: 3.13

====

tested on: Escherichia coli NIHJ
parameter: MIC (µg/mL)
Write down the numeric answer in µg/mL and omit the unit.

// below: answered compounds
compound: Cc1nnc(SCC2=C(C(=O)O)N3C(=O)C(NC(=O)[C@H](NC(=O)c4cnc5cccnc5c4O)c4ccccc4)C3SC2)s1 (stereo partly drawn) [Example 2]
parameter: MIC
assay-result: 1.56
//
compound: CC(=O)OCC1=C(C(=O)O)N2C(=O)C(NC(=O)[C@H](NC(=O)c3cnc4ccccc4c3O)c3ccccc3)C2SC1 (stereo partly drawn) [Compound (A), reference compound]
parameter: MIC
assay-result: 6.25
//
compound: CC(=O)OCC1=C(C(=O)O)N2C(=O)C(NC(=O)[C@H](NC(=O)c3cnc4cccnc4c3O)c3ccccc3)C2SC1 (stereo partly drawn) [Example 1]
parameter: MIC
assay-result: 3.13
//
compound: Cn1nnnc1SCC1=C(C(=O)O)N2C(=O)C(NC(=O)[C@H](NC(=O)c3cnc4cccnc4c3O)c3ccccc3)C2SC1 (stereo partly drawn) [Example 3]
parameter: MIC
assay-result: 0.78

Task: Specify reported MIC for the compound shown: CC(=O)OCC1=C(C(=O)O)N2C(=O)C(NC(=O)[C@H](NC(=O)c3cnccc3O)c3ccccc3)C2SC1 (stereo partly drawn) [Compound (B), reference compound]
Result: 12.5

Task: Specify reported MIC for the compound shown: O=C(O)C1=C(CSc2cnn[nH]2)CSC2C(NC(=O)[C@H](NC(=O)c3cnc4cccnc4c3O)c3ccccc3)C(=O)N12 (stereo partly drawn) [Example 4]
Result: 1.56

====

test system: Serratia No. 75; assay: Median protective dose against intraperitoneal infection in mice; format: in vivo, Serratia; male ICR-SLC strain mice; details: sc; Serratia No. 75, intraperitoneal infection; two subcutaneous treatments, 1 and 4 hours after infection; read-out: PD50
parameter: ED50

// below: answered molecules
molecule: CC(=O)OCC1=C(C(=O)O)N2C(=O)C(NC(=O)[C@H](NC(=O)c3cnccc3O)c3ccccc3)C2SC1 (stereo partly drawn) [Compound (B), reference compound]
ED50: > 150 mg/kg

molecule: Cn1nnnc1SCC1=C(C(=O)O)N2C(=O)C(NC(=O)[C@H](NC(=O)c3cnc4cccnc4c3O)c3ccccc3)C2SC1 (stereo partly drawn) [Example 3]
ED50: 25 mg/kg

molecule: CC(=O)OCC1=C(C(=O)O)N2C(=O)C(NC(=O)[C@H](NC(=O)c3cnc4cccnc4c3O)c3ccccc3)C2SC1 (stereo partly drawn) [Example 1]
ED50: 65 mg/kg

Task: State ED50 (Serratia No. 75) of Cc1nnc(SCC2=C(C(=O)O)N3C(=O)C(NC(=O)[C@H](NC(=O)c4cnc5cccnc5c4O)c4ccccc4)C3SC2)s1 (stereo partly drawn) [Example 2] .
Result: 30 mg/kg

Task: State ED50 (Serratia No. 75) of CC(=O)OCC1=C(C(=O)O)N2C(=O)C(NC(=O)[C@H](NC(=O)c3cnc4ccccc4c3O)c3ccccc3)C2SC1 (stereo partly drawn) [Compound (A), reference compound] .
Result: > 150 mg/kg

Task: State ED50 (Serratia No. 75) of O=C(O)C1=C(CSc2cnn[nH]2)CSC2C(NC(=O)[C@H](NC(=O)c3cnc4cccnc4c3O)c3ccccc3)C(=O)N12 (stereo partly drawn) [Example 4] .
Result: 30 mg/kg

====

test: Antibiotic serum concentrations in mice following subcutaneous administration (disc method bioassay); format: in vivo, ICR-SLC strain mice; details: mouse, sc, 50 mg/kg
Recorded half-life values for a group of compounds are listed next.
Write down the numeric answer in min and omit the unit.

// below: answered compounds
compound: O=C(O)C1=C(CSc2cnn[nH]2)CSC2C(NC(=O)[C@H](NC(=O)c3cnc4cccnc4c3O)c3ccccc3)C(=O)N12 (some centres unmarked)
unit-abbrev: min
half-life: 30
--
compound: Cc1nnc(SCC2=C(C(=O)O)N3C(=O)C(NC(=O)[C@H](NC(=O)c4cnc5cccnc5c4O)c4ccccc4)C3SC2)s1 (some centres unmarked)
unit-abbrev: min
half-life: 35
--
compound: CC(=O)OCC1=C(C(=O)O)N2C(=O)C(NC(=O)[C@H](NC(=O)c3cnccc3O)c3ccccc3)C2SC1 (some centres unmarked) [Compound (B), reference compound]
unit-abbrev: min
half-life: 30
--
compound: Cn1nnnc1SCC1=C(C(=O)O)N2C(=O)C(NC(=O)[C@H](NC(=O)c3cnc4cccnc4c3O)c3ccccc3)C2SC1 (some centres unmarked)
unit-abbrev: min
half-life: 25

// next entry
Task: Specify reported half-life for the compound shown: CC(=O)OCC1=C(C(=O)O)N2C(=O)C(NC(=O)[C@H](NC(=O)c3cnc4cccnc4c3O)c3ccccc3)C2SC1 (some centres unmarked)
Result: 25
